Assay: in vivo
Conditions: rat, in vivo, po
Property: LD50 at 336 h (mg/kg)
Answer in mg/kg, number only, no unit symbol.

Request: Return LD50 at 336 h for the following compound: OCCC=Cc1ccc(-c2ccccc2F)cc1 [A, 4-(2"-fluoro-4'-biphenylyl)-3-buten-1-ol]
Result: 1770

----------
Experiment: Therapeutic index (LD50/ED35)
Conditions: in vivo; oral LD50 / average ED35, rat; read-out: Therapeutical Index, ratio between toxic and antiexudative activity LD50/ED35
Property: selectivity ratio
Kindly provide the number alone.

Request: Give reported selectivity ratio value for OCCC=Cc1ccc(-c2ccccc2F)cc1
Result: 56.2

The measurements presented in this section are drawn from patent US3969418A.
